All figures here come from PubChem BioAssay.

# System: XIP peptide (Xip251-270)
# assay.comment: compounds binding XIP fragment 251-270 – biochemical, small-molecule microarray, fluorescence 635/667 nm, 0.5 µg/mL protein, primary screen (AID 1183)
# run.conditions: fluorescence 635 nm, higher = more signal
Please note: T applies when composite z-score is 0.4 or greater, and F applies otherwise.

| compound | study.target | assigned.class |
| --- | --- | --- |
| CN(C)CCCNC(=O)[C@@H]1c2ccccc2C(=O)N(Cc2ccccc2C(F)(F)F)[C@H]1c1ccc(CO)cc1 | XIP peptide (Xip251-270) | F |
| O=C1O[C@@H](c2ccccc2)[C@@H](c2ccccc2)N2[C@@H](c3ccc(OCCO)cc3)[C@]3(C(=O)Nc4ccc(C#CCCO)cc43)[C@@H](C(=O)O)[C@H]12 | XIP peptide (Xip251-270) | T |
| COc1cc(CO)cc(I)c1O[C@H]1C=C(C(=O)NCCO)C[C@@H]2O[C@H]12 | XIP peptide (Xip251-270) | F |
| COCCOC(=O)N1C(=O)[C@@]2(c3cc(C#CCCO)ccc31)[C@H](c1ccc(OCCO)cc1)N1[C@H](c3ccccc3)[C@H](c3ccccc3)OC(=O)[C@H]1[C@@H]2C(=O)N1CCCCCCC1 | XIP peptide (Xip251-270) | T |
| O=C(NCc1ccccc1)[C@@H]1c2ccccc2C(=O)N(Cc2cc(C(F)(F)F)cc(C(F)(F)F)c2)[C@H]1c1ccc(CO)cc1 | XIP peptide (Xip251-270) | F |
| O=C1C[C@@](C(=O)NCc2ccccc2)(c2ccc([N+](=O)[O-])cc2)[C@@H](c2ccc(CO)cc2)N1C1CCCCC1 | XIP peptide (Xip251-270) | T |
| COc1cc(C(O)C2C=CC3C(=O)N(c4ccccc4)C(=O)C3N2Nc2ccccc2F)cc(OC)c1OC (configuration not stated) | XIP peptide (Xip251-270) | T |

====

# study.target: Focal adhesion kinase 1 (Homo sapiens)
# assay.comment: PTK2 protein binding on printed compound slides – biochemical, small-molecule microarray, 635/667 nm fluorescence, BSA, DTT, primary screen (AID 1130);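 further: composite of spot emission at 667 nm and signal to noise over triplicate slides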
# run.conditions: 635 nm fluorescence, higher = more signal
Please note: Criterion met applies when composite z-score is 0.1 or greater, and Criterion not met applies otherwise.

| molecule | assigned.class |
| --- | --- |
| COC(=O)[C@H](Cc1ccc(O)cc1)N[C@@H](/C=C/C1CC1)[C@H](O)Cc1ccccc1 | Criterion not met |
| CN1C(=O)C2C(C3CC3)C=C3CN(Cc4cccc(Cl)c4)[C@@H]([C@@H](O)Cc4ccccc4)C3C2C1=O (some centres undefined) | Criterion met |
| O=C(NC1CC1)[C@@H]1c2ccccc2C(=O)N(Cc2ccc(OC(F)(F)F)cc2)[C@H]1c1ccc(CO)cc1 | Criterion met |
| C=CCOC(=O)[C@H]1[C@@H]2C(=O)O[C@@H](c3ccccc3)[C@@H](c3ccccc3)N2[C@@H](c2ccc(OCCOC(=O)[C@H]3C[C@H]4C(=O)N[C@@H](CC(C)C)C(=O)N4[C@H]3c3ccc(O)cc3)cc2)[C@]12C(=O)Nc1ccccc12 | Criterion met |
| [N-]=[N+]=Nc1ccccc1[C@@H]1OC(c2ccc(OCCCO)cc2)=N[C@]1(CCS(=O)(=O)c1ccccc1)C(=O)NCC(O)CO (some centres undefined) | Criterion met |
| C=CC1c2cc(O)c(OC)cc2CCN1C (centres undefined) | Criterion not met |
| CC(C)=CCCC(C)=CC(O)C1C=CC2C(=O)NC(=O)C2N1Nc1ccccn1 (centres undefined) | Criterion not met |
| C=CCNC(=O)[C@H]1[C@@H]2C(=O)O[C@@H](c3ccccc3)[C@@H](c3ccccc3)N2[C@@H](c2ccc(OCCO)cc2)[C@]12C(=O)Nc1ccccc12 | Criterion met |
| CC1CC/C=C\[C@H]2OC34C=CCN(CCN5CCOCC5)C(=O)[C@H]3N(CCCO)C(=O)[C@@H]4C2C(=O)O1 (some centres undefined) | Criterion not met |
| CN(C)c1ccc(C(O)C2C=CC3C(=O)N(Cc4ccccc4)C(=O)C3N2n2cnnc2)cc1 (centres undefined) | Criterion not met |
| C=CC[C@@]1(C(=O)OC)N=C(c2ccc(OCCCO)cc2)O[C@@H]1c1ccccc1N=[N+]=[N-] | Criterion met |
| COC(=O)[C@@]1(Cc2ccccc2)[C@H]2c3cc(C(=O)N4CCCC4)n(Cc4ccc(OC)c(OC)c4)c3C[C@H]2CN1C(=O)c1ccccc1 | Criterion met |
| C=CCC(OC(C)=O)[C@@H]1[C@@H](N(Cc2ccc(-c3cccc(C(F)(F)F)c3)o2)C(=O)Cc2ccc(F)cc2)c2cc(OCCCO)ccc2N1C(=O)Cc1ccc2ccccc2c1 (some centres undefined) | Criterion not met |
| COCCOC(=O)N1C(=O)[C@@]2(c3cc(C#CC4(O)CCCCCC4)ccc31)[C@H](c1ccc(O)cc1)N1[C@H](c3ccccc3)[C@H](c3ccccc3)OC(=O)[C@H]1[C@@H]2C(=O)N1CCCCCCC1 | Criterion met |
